Tested on: H358 cells
method-description: Cell activity experiment: activity test of H358 cells (MTT, 5 days)
Type: cell-based
test-parameters: 5 days incubation, absorbance 492 nm
readout-label: IC50 (nM)
The answer is to be given in nM; state only the numeric part.

Value of measured IC50 for the entry C=C(F)C(=O)N1CCN(c2nc(OC[C@@]34CCCN3C[C@H](F)C4)nc3c(OC4CC4)c(-c4cccc5c4CC4CC54)c(Cl)cc23)C[C@@H]1CC#N (single isomer, unassigned) [Example 919] : 1680

Value of measured IC50 for the entry C=C(F)C(=O)N1CCN(c2nc(OC[C@@]34CCCN3C[C@H](F)C4)nc3c(F)c(-c4cccc5c4CC4CC54)ncc23)C[C@@H]1CC#N (single isomer, unassigned) [Example 879] : 4

Value of measured IC50 for the entry C=CC(=O)N1CCN(c2nc(OC[C@@]34CCCN3C[C@H](F)C4)nc3c(F)c(-c4cccc5c4CC4CC54)ncc23)C[C@@H]1CC#N (single isomer, unassigned) : 9.5

Value of measured IC50 for the entry "C=CC(=O)N1CC[C@H]2[C@H]1CN2c1c(Cl)c(-c2cccc3c2CCCC3)cc2nc(OC[C@@]34CCCN3C[C@H](F)C4)ncc12" : 35

Query compound follows.
Value of measured IC50 for the entry C=CC(=O)N1CCN(c2nc(OC[C@@H]3CCCN3C)nc3c(F)c(-c4cccc5c4CC4CC54)ccc23)C[C@@H]1CC#N (single isomer, unassigned) [Example 881] : 3.4

###

System: H358 cells
method-description: Cell activity experiment: activity test of H358 cells (MTT, 5 days)
Type: cell-based
test-parameters: Homo sapiens, NCI-H358, 120 h, 5 days incubation, absorbance 492 nm
readout-label: IC50 (nM)
The answer is to be given in nM; state only the numeric part.

Examples with answers:
Value of measured IC50 for the entry "C=CC(=O)N1CCN(c2nc(OC[C@@H]3CCCN3C)nc3c(F)c(-c4cccc5c4CCCC5)c(Cl)cc23)CC1" : 160

Value of measured IC50 for the entry C=C(F)C(=O)N1CCN(C2=C(C#N)C(OC[C@@H]3CCCN3C)=NC3C=C(c4cccc5ccc(F)c(Cl)c45)C=CC23)C[C@@H]1CC#N (stereo partly drawn) : 800

Query compound follows.
Value of measured IC50 for the entry C=C(F)C(=O)N1CCN(C2=C(C#N)C(OC[C@@]34CCCN3C[C@H](F)C4)=NC3C=C(c4cccc5ccc(F)c(Cl)c45)C=CC23)C[C@@H]1CC#N (stereo partly drawn) : 120

###

# IC50 values compiled below
Test system: H358 cells
method-description: Cell activity experiment: activity test of H358 cells (MTT, 5 days)
Type: cell-based
test-parameters: Homo sapiens, NCI-H358, 120 h, 5 days incubation, absorbance 492 nm
The answer is to be given in nM; state only the numeric part.

Value of measured IC50 for the entry "C=C(F)C(=O)N1CCN(c2nc(OC[C@@H]3CCCN3C)nc3c(F)c(-c4cccc5c4[C@@H]4C[C@@H]4C5)ncc23)C[C@@H]1CC#N" : 140

Further cases:
Value of measured IC50 for the entry "C=CC(=O)N1CCN(c2nc(OC[C@@H]3C[C@@H](F)CN3C)nc3c(F)c(-c4cncc5cccc(Cl)c45)ccc23)C[C@@H]1CC#N" : 5

Value of measured IC50 for the entry "C=CC(=O)N1CCN(c2nc(OC[C@@H]3CCCN3C)nc3c(F)c(-c4cccc5c4[C@@H]4C[C@@H]4C5)ncc23)C[C@@H]1CC#N" : 0.81

###

# IC50 values compiled below
Test system: H358 cells
method-description: Cell activity experiment: activity test of H358 cells (MTT, 5 days)
Type: cell-based
test-parameters: Homo sapiens, NCI-H358, 120 h, 5 days incubation, absorbance 492 nm
Respond with the figure and its unit, in that order.

Value of measured IC50 for the entry "C=CC(=O)N1CCN(c2nc(OCC3(CN4CCCC4)CC3)nc3c(F)c(-c4cccc5cccc(Cl)c45)ccc23)C[C@@H]1CC#N" : 5.1 nM

Value of measured IC50 for the entry "C=C(F)C(=O)N1CCN(c2nc(OC[C@@]34CCCN3C[C@H](F)C4)nc3c(OC4CC4)c(-c4cccc5cccc(Cl)c45)c(Cl)cc23)C[C@@H]1CC#N" : 37 nM

Value of measured IC50 for the entry "C=C(F)C(=O)N1CCN(c2nc(OC[C@@H]3C[C@@H](F)CN3C)nc3cc(-c4cccc5c4CCCC5)ccc23)C[C@@H]1CC#N" : 150 nM

Value of measured IC50 for the entry "C=CC(=O)N1CC[C@@H]2[C@H]1CN2c1nc(OC[C@@H]2CCCN2C)nc2c(F)c(-c3cncc4c3CCCC4)ncc12" : 15 nM

Value of measured IC50 for the entry "C=C(F)C(=O)N1CCN(c2nc(OC[C@@]34CCCN3C[C@H](F)C4)nc3c(F)c(-c4ccc(F)c5c4CCCC5)ncc23)C[C@@H]1CC#N" : 15 nM

Further cases:
Value of measured IC50 for the entry C=CC(=O)N1CCN(c2nc(OCC34CCCN3C[C@H](F)C4)nc3cc(-c4cncc5c4CCCC5)ccc23)C[C@@H]1CC#N (stereo partly drawn) : 5 nM

Value of measured IC50 for the entry "C=CC(=O)N1CCN(c2nc(OC[C@@]34CCCN3C[C@H](F)C4)nc3c(F)c(-c4cccc5c4CCCC5)ccc23)C[C@@H]1CC#N" : 3 nM

Value of measured IC50 for the entry "C=C(F)C(=O)N1CC[C@@H]2[C@H]1CN2c1nc(OC[C@@]23CCCN2C[C@H](F)C3)nc2c(F)c(-c3cncc4c3CCCC4)ncc12" : 20 nM

Value of measured IC50 for the entry "C=CC(=O)N1CCN(c2nc(OC[C@@H]3C[C@@H](F)CN3C)nc3c(F)c(-c4cccc5c4CCCC5)ccc23)C[C@@H]1CC#N" : 10 nM

Value of measured IC50 for the entry "C=C(F)C(=O)N1CCN(c2nc(OC[C@@H]3C[C@@H](F)CN3C)nc3cc(-c4cccc5cccc(Cl)c45)ccc23)C[C@@H]1CC#N" : 65 nM

Value of measured IC50 for the entry "C=C(F)C(=O)N1CC[C@@H]2[C@H]1CN2c1nc(OC[C@@H]2C[C@@H](F)CN2C)nc2c(F)c(-c3ccc(F)c4c3CCCC4)ncc12" : 80 nM

Value of measured IC50 for the entry "C=CC(=O)N1CCN(c2nc(OC[C@@H]3CCCN3C)nc3cc(N4CCCc5cccc(Cl)c54)ccc23)C[C@@H]1CC#N" : 200 nM

###

# pIC50 values compiled below
System: H358 cells
method-description: Cell activity experiment: activity test of H358 cells (MTT, 5 days)
Type: cell-based
test-parameters: Homo sapiens, NCI-H358, 120 h, 5 days incubation, absorbance 492 nm
In simple prose, pIC50 is minus the logarithm base ten of a concentration in moles per litre.

Value of measured pIC50 for the entry "C=C(F)C(=O)N1CCN(c2nc(OC[C@@H]3CCCN3C)nc3cc(N4CCCc5cccc(Cl)c54)ccc23)C[C@@H]1CC#N" : 6.30

Value of measured pIC50 for the entry "C=C(F)C(=O)N1CCN(c2nc(OCC34CCCN3CCC4)nc3c(F)c(-c4ccc(F)c5c4CCCC5)ncc23)C[C@@H]1CC#N" : 7.70

Value of measured pIC50 for the entry "C=CC(=O)N1CCN(c2nc(OC[C@@H]3CCCN3C)nc3c(F)c(-c4cccc5c4[C@H]4C[C@H]4C5)ncc23)C[C@@H]1CC#N" : 8.66

Value of measured pIC50 for the entry C=CC(=O)N1CCC2[C@H]1CN2c1nc(OC[C@@H]2CCCN2C)nc2c(F)c(-c3cccc4c3CCCC4)ccc12 (stereo partly drawn) : 7.70

Value of measured pIC50 for the entry "C=C(F)C(=O)N1CC[C@@H]2[C@H]1CN2c1nc(OC[C@@H]2CCCN2C)nc2c(F)c(-c3cncc4c3CCCC4)ncc12" : 7.46

Further cases:
Value of measured pIC50 for the entry "C=CC(=O)N1CC[C@@H]2[C@H]1CN2c1nc(OC[C@@H]2CCCN2C)nc2c(F)c(-c3ccc(F)c4c3CCCC4)ncc12" : 8.00

Value of measured pIC50 for the entry "C=C(F)C(=O)N1CCN(c2nc(OC[C@@H]3C[C@@H](F)CN3C)nc3cc(-c4cccc5ccc(F)c(Cl)c45)ccc23)C[C@@H]1CC#N" : 7.60

Value of measured pIC50 for the entry "C=CC(=O)N1CCN(c2c(C#N)c(OCC34CCCN3CCC4)nc3cc(-c4cccc5ccc(F)c(Cl)c45)ccc23)C[C@@H]1CC#N" : 6.86

###

Test system: H358 cells
method-description: Cell activity experiment: activity test of H358 cells (MTT, 5 days)
Assay type: cell-based
test-parameters: Homo sapiens, NCI-H358, 120 h, 5 days incubation, absorbance 492 nm
readout-label: IC50 (nM)
The answer is to be given in nM; state only the numeric part.

Examples with answers:
Bench note, H358 cells: C=CC(=O)N1CCN(C2=C(C#N)C(OC[C@@]34CCCN3C[C@H](F)C4)=NC3C=C(c4cccc5ccc(F)c(Cl)c45)C=CC23)C[C@@H]1CC#N (stereo partly drawn) , IC50 reads 60

Bench note, H358 cells: "C=CC(=O)N1CCN(c2nc(OC[C@@H]3CCCN3C)nc3cc(-c4cccc5cccc(Cl)c45)c(Cl)cc23)C[C@@H]1CC#N" , IC50 reads 70

Bench note, H358 cells: "C=CC(=O)N1CCN(c2nc(OC[C@@H]3CCCN3C)nc3nc(-c4cccc5c4CCCC5)ccc23)C[C@@H]1CC#N" , IC50 reads 55

Bench note, H358 cells: "C=CC(=O)N1CCN(c2nc(OC[C@@H]3CCCN3C)nc3c(F)c(-c4ccc(F)c5c4SCCC5)ncc23)C[C@@H]1CC#N" , IC50 reads 70

Further cases:
Bench note, H358 cells: "C=CC(=O)N1CCN(c2nc(OC[C@@H]3CCCN3C)nc3cc(-c4cccc5ccc(F)c(Cl)c45)ccc23)C[C@@H]1CC#N" , IC50 reads 6.5

Bench note, H358 cells: "C=CC(=O)N1CC[C@H]2[C@H]1CN2c1nc(OC[C@@H]2CCCN2C)nc2c(F)c(-c3cccc4cccc(Cl)c34)ccc12" , IC50 reads 10
